# target entity: ZFP SBS#998 (synthetic)
# Sequence (chain, as listed by the source): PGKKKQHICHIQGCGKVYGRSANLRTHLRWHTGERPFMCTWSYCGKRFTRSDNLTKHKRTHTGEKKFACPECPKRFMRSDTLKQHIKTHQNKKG
# protocol details: EMSA
# measurement setup: tags: MBP fusion
measured property: Kd (nM)
Use nM as the unit, but write only the number.

Prompt: Kd lookup needed for ACGTAGTAG (dsDNA) DNA 1: ACGTAGTAG DNA 2: CTACTACGT , thanks.
Response: 0.23
